B1: ANKRD17 (parent)
chain: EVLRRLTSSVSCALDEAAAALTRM

# Variants of: B1
# assay_comment: protein stability index of a GFP-peptide fusion (GPS, HEK-293T) (PSI 1-6); higher = more stable;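 also: lentivirally expressed fusions sorted by FACS into six bins by GFP to DsRed ratio, PSI derived from sequencing read proportions per bin multiplied by bin number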
# details: c terminus: a fixed tail appended
quantity_kind: protein stability index
# respond with the number and nothing more

seq_string: EVLRRLNSSVSCALDEAAAALTRM [T7N]
protein stability index: 1.16

seq_string: EVLRRKTSSVSCALDEAAAALTRM [L6K]
protein stability index: 2.17

seq_string: EVLRRLTSSISCALDEAAAALTRM [V10I]
protein stability index: 2.13

seq_string: EVLWRLTSSVSCALDEAAAALTRM [R4W]
protein stability index: 1.07

Quick one: protein stability index of IVLRRLTSSVSCALDEAAAALTRM [E1I] ?
1.89

Now give it for EVLRRLTSSRSCALDEAAAALTRM [V10R] too.
1.07

EVLRRLTSSLSCALDEAAAALTRM [V10L] ?
2.21

Can you check EVLRRLTSSVSCALDEAAAACTRM [L21C] next?
1.18

Item: EVLRRLTSSVSCALDEAAAALTRT [M24T]
3.53

Also, EVLRRLTSNVSCALDEAAAALTRM [S9N] please.
1.81

Another variant: EVLRRLTSSVSCALDEAAAALARM [T22A]
1.94
